Where do these numbers come from? They come from ChEMBL document CHEMBL1129994.

Give measured IC50 for each item. Keep answers brief.
# Tested Target: Norepinephrine transporter (Rattus norvegicus)
# Sequence (Q9WTR4 whole entry): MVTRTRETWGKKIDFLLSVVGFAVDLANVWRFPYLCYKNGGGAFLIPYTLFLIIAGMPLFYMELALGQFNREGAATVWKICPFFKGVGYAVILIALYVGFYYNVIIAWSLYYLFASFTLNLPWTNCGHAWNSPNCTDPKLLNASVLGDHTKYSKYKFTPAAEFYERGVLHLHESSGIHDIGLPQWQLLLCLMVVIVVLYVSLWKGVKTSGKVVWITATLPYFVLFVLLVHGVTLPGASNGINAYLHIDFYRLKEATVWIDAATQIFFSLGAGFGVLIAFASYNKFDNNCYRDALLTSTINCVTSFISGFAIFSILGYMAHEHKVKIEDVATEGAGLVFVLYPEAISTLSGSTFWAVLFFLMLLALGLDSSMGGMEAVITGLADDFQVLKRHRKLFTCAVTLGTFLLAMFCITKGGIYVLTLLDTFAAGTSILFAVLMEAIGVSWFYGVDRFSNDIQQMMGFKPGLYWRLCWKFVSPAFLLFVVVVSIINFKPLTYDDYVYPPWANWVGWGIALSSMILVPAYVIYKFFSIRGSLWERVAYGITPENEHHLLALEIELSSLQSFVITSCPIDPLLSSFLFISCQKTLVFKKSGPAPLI

Reference set (3 entries):
CN1[C@@H]2CC[C@H]1[C@H](c1ccccc1)[C@H](c1ccccc1)C2 (racemic) :: 2770 nM
CN1[C@@H]2CC[C@H]1[C@@H](c1ccccc1)[C@@H](c1ccccc1)C2 (racemic) :: 2670 nM
CN1[C@@H]2CC[C@@H]1C(O)(c1ccccc1)C(c1ccccc1)C2 (mixture of isomers) :: > 175000 nM

For CN1C2CCC1C(c1ccccc1)=C(c1ccccc1)C2 (racemic) the compound record lists IC50 as 21400 nM

====

# Tested Target: Sodium-dependent serotonin transporter (Rattus norvegicus, UniProt P31652)
# Sequence (P31652 whole entry): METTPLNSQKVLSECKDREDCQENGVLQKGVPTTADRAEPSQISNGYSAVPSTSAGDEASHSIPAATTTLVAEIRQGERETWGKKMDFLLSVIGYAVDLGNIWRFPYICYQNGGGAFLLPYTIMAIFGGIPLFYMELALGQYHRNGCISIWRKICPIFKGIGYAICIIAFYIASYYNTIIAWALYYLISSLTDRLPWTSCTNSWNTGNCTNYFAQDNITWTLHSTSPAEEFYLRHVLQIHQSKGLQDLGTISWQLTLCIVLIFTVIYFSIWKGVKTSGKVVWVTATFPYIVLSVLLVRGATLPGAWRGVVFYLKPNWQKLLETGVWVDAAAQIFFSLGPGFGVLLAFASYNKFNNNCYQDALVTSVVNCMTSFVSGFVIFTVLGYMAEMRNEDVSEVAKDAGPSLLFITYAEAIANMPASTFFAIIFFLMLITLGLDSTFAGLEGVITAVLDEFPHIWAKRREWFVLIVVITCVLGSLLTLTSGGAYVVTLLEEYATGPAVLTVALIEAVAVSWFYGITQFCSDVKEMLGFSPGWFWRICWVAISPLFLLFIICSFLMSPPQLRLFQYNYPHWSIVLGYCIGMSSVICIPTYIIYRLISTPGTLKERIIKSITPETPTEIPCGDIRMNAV
Hi there, I'd appreciate the recorded pIC50 for every entry that follows.
One number for each entry, as −log10 of the molar value.

Examples from the recorded data:
CN1C2CCC1C(c1ccccc1)=C(c1ccccc1)C2 (racemic) :: 4.32
CN1[C@@H]2CC[C@H]1[C@H](c1ccccc1)[C@H](c1ccccc1)C2 (racemic) :: 4.73
CN1[C@@H]2CC[C@@H]1C(O)(c1ccccc1)C(c1ccccc1)C2 (mixture of isomers) :: 4.43

Next molecule, please.
With Sodium-dependent serotonin transporter (Rattus norvegicus, UniProt P31652) as the test system, CN1[C@@H]2CC[C@H]1[C@@H](c1ccccc1)[C@@H](c1ccccc1)C2 (racemic) showed pIC50 of 4.46
